Assignment: determine reported half-life for the given compounds.
Test: Hydrolysis of pro-drugs at biologically relevant pHs (half-lives)
Assay type: physicochemical
Conditions: buffer, pH 4.3; read-out: Half-life (converted)
Use min as the unit, but write only the number.

half-life for C#CCOCCOCCOCCOCCn1cc(C(ONC(=O)CCCCCCC(=O)Nc2ccccc2)(c2ccc(C)cc2)c2ccc(C)cc2)nn1 [Compound 6b] is 1200

half-life for C#CCOCCOCCOCCOCCn1cc(C(ONC(=O)CCCCCCC(=O)Nc2ccccc2)(c2ccc(OC)cc2)c2ccc(OC)cc2)nn1 [Compound 6c] is 30

---

Experiment: Hydrolysis of pro-drugs at biologically relevant pHs (half-lives)
Type: physicochemical
Conditions: buffer; pH 5.0; read-out: Half-life (converted)
Assignment: determine reported half-life for the given compounds.

half-life for C#CCOCCOCCOCCOCCn1cc(C(Nc2ccccc2NC(=O)c2ccc(NC(C)=O)cc2)(c2ccc(OC)cc2)c2ccc(OC)cc2)nn1 is < 0.0833 h

half-life for C#CCOCCOCCOCCOCCn1cc(C(Nc2ccccc2NC(=O)c2ccc(NC(C)=O)cc2)(c2ccccc2)c2ccccc2)nn1 is 6.67 h

half-life for C#CCOCCOCCOCCOCCn1cc(C(ONC(=O)CCCCCCC(=O)Nc2ccccc2)(c2ccc(OC)cc2)c2ccc(OC)cc2)nn1 is 1.33 h

half-life for C#CCOCCOCCOCCOCCn1cc(C(Nc2ccccc2NC(=O)c2ccc(NC(C)=O)cc2)(c2ccc(C)cc2)c2ccc(C)cc2)nn1 is 0.2 h

Data credit: paper PMC6406258
